These measurements were taken from the supplement of paper PMC10567573.

B1: GLT8D2 (parent)
chain: QEAKLLHWNGRHKPWDFPSVHNDL

Variants of: B1
Assay Overview: protein stability index of a GFP-peptide fusion (GPS, HEK-293T) (PSI 1-6); higher = more stable;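 also: lentivirally expressed fusions sorted by FACS into six bins by GFP to DsRed ratio, PSI derived from sequencing read proportions per bin multiplied by bin number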
Test Parameters: c terminus: a fixed tail appended
For each entry below, report its protein stability index value.
Answer with a bare number; do not write a unit.

For the variant `L6T` , report protein stability index.
2.68

For the variant `L24Q` , report protein stability index.
3.5

For the variant `L6M` , report protein stability index.
2.3

For the variant `L5Q` , report protein stability index.
2.83

For the variant `K13L` , report protein stability index.
2.26

For the variant `H12L` , report protein stability index.
2.45

For the variant `Q1S` , report protein stability index.
2.51

For the variant `G10P` , report protein stability index.
2.69

For the variant `D16Q` , report protein stability index.
2.48

For the variant `N9E` , report protein stability index.
2.73

For the variant `L24T` , report protein stability index.
3.41

For the variant `W8V` , report protein stability index.
3.1

For the variant `D16P` , report protein stability index.
2.46

For the variant `K4R` , report protein stability index.
2.87

For the variant `D16K` , report protein stability index.
2.26

For the variant `W8H` , report protein stability index.
2.85

For the variant `S19L` , report protein stability index.
1.96

For the variant `H7S` , report protein stability index.
2.69

For the variant `W15L` , report protein stability index.
2.87

For the variant `R11G` , report protein stability index.
2.64

For the variant `Q1N` , report protein stability index.
2.84

For the variant `A3T` , report protein stability index.
2.75
